target: human α1B-adrenoceptor (Homo sapiens); construct: CHO cells stably expressing either the full‐length human α1A, α1B, or α1D‐adrenoceptor; experiment: [3H]prazosin whole-cell competition binding, CHO-α1B cells; details: Log KD α1B, +1 mmol/L sodium thiosulphate, ligand preincubated 30 min with thiosulphate; single-component curve (column Log KD site 1)
Sequence (P35368 whole entry): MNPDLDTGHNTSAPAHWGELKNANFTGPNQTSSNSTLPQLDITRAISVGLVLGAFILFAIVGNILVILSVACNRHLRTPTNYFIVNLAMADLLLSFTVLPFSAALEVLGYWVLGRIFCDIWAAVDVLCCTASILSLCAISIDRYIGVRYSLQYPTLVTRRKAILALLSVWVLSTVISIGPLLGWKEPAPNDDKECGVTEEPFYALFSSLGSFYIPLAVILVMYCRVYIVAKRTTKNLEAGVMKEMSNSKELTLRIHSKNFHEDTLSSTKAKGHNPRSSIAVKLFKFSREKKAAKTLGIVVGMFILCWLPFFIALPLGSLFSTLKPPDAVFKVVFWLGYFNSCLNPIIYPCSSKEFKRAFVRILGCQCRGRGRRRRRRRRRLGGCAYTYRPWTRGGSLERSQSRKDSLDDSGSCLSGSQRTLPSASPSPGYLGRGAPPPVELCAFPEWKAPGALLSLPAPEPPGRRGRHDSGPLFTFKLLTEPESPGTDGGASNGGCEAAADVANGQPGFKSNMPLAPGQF
property.label: pKd
Note on pKd: it is the negative log10 of concentration, concentration in mol/L.

What value of pKd has been reported for the following compound? `CCOc1ccccc1OCCN[C@H](C)Cc1ccc(OC)c(S(N)(=O)=O)c1` 8.13

====

target: human α1A-adrenoceptor (Homo sapiens, UniProt P35348); construct: CHO cells stably expressing either the full‐length human α1A, α1B, or α1D‐adrenoceptor; test: [3H]prazosin whole-cell competition binding, CHO-α1A cells; details: single-component inhibition curve; given as log KD (negative); mean ± SE mean; read-out: Log KD α1A (converted)
Sequence (P35348 whole entry): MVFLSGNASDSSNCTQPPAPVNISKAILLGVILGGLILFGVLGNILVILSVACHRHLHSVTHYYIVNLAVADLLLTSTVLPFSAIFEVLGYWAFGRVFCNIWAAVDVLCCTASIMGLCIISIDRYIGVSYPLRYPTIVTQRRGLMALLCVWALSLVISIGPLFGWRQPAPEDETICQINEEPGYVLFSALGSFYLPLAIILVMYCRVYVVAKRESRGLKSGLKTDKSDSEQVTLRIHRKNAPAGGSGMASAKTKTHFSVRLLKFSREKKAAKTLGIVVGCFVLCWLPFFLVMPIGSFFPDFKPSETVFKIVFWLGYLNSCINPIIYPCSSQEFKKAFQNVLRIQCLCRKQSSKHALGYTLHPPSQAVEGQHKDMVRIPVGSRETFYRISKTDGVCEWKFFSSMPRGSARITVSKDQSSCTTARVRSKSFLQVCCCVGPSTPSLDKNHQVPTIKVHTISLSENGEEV
property.label: Kd (nM)
Numeric only. Scale: nM

Reported Kd, compound O=C(NC1CCN(CCc2c[nH]c3ccccc23)CC1)c1ccccc1 [Indoramin] : ____ 3.72

For the compound shown here, O=C1Cc2cc(CCN3CCN(c4nsc5ccccc45)CC3)c(Cl)cc2N1 [Ziprasidone] , give the reported Kd. 1.86

What value of measured Kd is listed for CC(C)(Cc1c[nH]c2ccccc12)NCC(O)COc1ccccc1C#N (stereo not drawn) [Bucindolol] ? 26.9

# input compound: CC(C(O)c1ccc(O)cc1)N1CCC(Cc2ccccc2)CC1 (stereo not drawn) [Ifenprodil] ; wanted: its Kd 21.9

What Kd value was documented for this compound, CCC1(C2=NCCN2)Cc2ccccc2O1 (stereo not drawn) [Efaroxan] ? 3390

For the compound shown here, CCn1ccnc1CC1COc2ccccc2O1 (stereo not drawn) [Imiloxan] , give the reported Kd. 25100

What value of measured Kd is listed for Cc1ccc(OCC(O)C(C)NC(C)C)c2c1CCC2 (stereo not drawn) [ICI118551] ? 5890

// returns reported Kd for input Cn1cc(C(F)(F)F)nc1-c1ccc(OCC(O)CNCCOc2ccc(O)c(C(N)=O)c2)cc1 (stereo not drawn) [CGP20712A] 11700

Which value of Kd has been reported for C[C@H](Cc1cc2c(c(C(N)=O)c1)N(CCCO)CC2)NCCOc1ccccc1OCC(F)(F)F [Silodosin] in the records? 0.245

====

target: human α1B-adrenoceptor (Homo sapiens); construct: CHO cells stably expressing either the full‐length human α1A, α1B, or α1D‐adrenoceptor; assay: [3H]prazosin whole-cell competition binding, CHO-α1B cells; conditions: single-component inhibition curve; given as log KD (negative); mean ± SE mean
Exercise: state measured Log KD α1B for each of the compounds provided.

Param item = CN1CC[C@]2(CCN3CCc4c(oc5ccccc45)[C@@H]3C2)N(C)C1=O.Cl [MK‐912] ; retrieve measured Log KD α1B. −5.46 ± 0.05

# get_value(readout='Log KD α1B', item= CC1c2ccccc2CN1CC1=NCCN1 (centres unmarked) [BRL44408] ) −4.68 ± 0.07

So what does the record say about Log KD α1B for O=C1Nc2ccccc2C2=NC(CN3CCN(c4ccccc4)CC3)CN12 (centres unmarked) [2‐PMDQ] ? −6.95 ± 0.05

Given the compound CNCCCN1c2ccccc2CCc2ccc(Cl)cc21 [Norclomipramine] , what is its reported Log KD α1B? −5.84 ± 0.04

Field request: Log KD α1B | item: CN1CCN2c3ncccc3Cc3ccccc3C2C1 (centres unmarked) [Mirtazepine] −5.36 ± 0.03

// data source = paper PMC7327383
